target: BRD4 (BDI_K57-E168) (Homo sapiens); construct: BD1: amino acids K57-E168; made in house; experiment: TR-FRET bromodomain binding assay, first bromodomain of BRD4; details: TR-FRET assay protocol G (compound 0.92 μM-15 pM); 100 nM probe
Items are presented alongside their recorded Ki.
In your response, the unit should come after the numeric value.

# count of solved cases: 3
COCCC(C)N1Cc2c[nH]c3c(=O)n(C)cc(c23)-c2cc(CS(C)(=O)=O)ccc21 (racemic) [Example 186] : 4.21 nM
Cn1cc2c3c(c[nH]c3c1=O)C(CCC(O)CO)N(c1ccc(F)cc1F)c1ccc(CS(C)(=O)=O)cc1-2 (stereo not shown) [Example 140] : 9.99 nM
Cn1cc2c3c(c[nH]c3c1=O)CN(CC(C)(C)CN1CCCC1)c1ccc(CS(C)(=O)=O)cc1-2 [Example 178] : 4.36 nM

Q. Recall and state the measured Ki for Cn1cc2c3c(c[nH]c3c1=O)C(CNC(=O)CN)N(c1ccc(F)cc1F)c1ccc(CS(C)(=O)=O)cc1-2 (stereo not shown) [Example 139] .
A. 17.5 nM

----------
biological target: BRD4 (BDI_K57-E168) (Homo sapiens); construct: BD1: amino acids K57-E168; made in house; assay: TR-FRET bromodomain binding assay, first bromodomain of BRD4; details: TR-FRET assay protocol G (compound 0.92 μM-15 pM); 100 nM probe
measurementLabel: pKi
In textbook form, pKi equals minus log to base ten of the concentration in mol/L.

Cn1cc2c3c(c[nH]c3c1=O)CN(C(=O)CCC1CCCC1)c1ccc(CS(C)(=O)=O)cc1-2 : 8.09

Q. Provide BRD4 (BDI_K57-E168) (Homo sapiens) pKi reading for "CN1CCC(N2Cc3c[nH]c4c(=O)n(C)cc(c34)-c3cc(CS(C)(=O)=O)ccc32)CC1" .
A. 8.48

Q. Provide BRD4 (BDI_K57-E168) (Homo sapiens) pKi reading for Cn1cc2c3c(c[nH]c3c1=O)C(C(=O)NCCc1ccccc1)N(c1ccc(F)cc1F)c1ccc(CS(C)(=O)=O)cc1-2 (stereo not shown) .
A. 7.33

Q. Provide BRD4 (BDI_K57-E168) (Homo sapiens) pKi reading for "Cn1cc(-c2[nH]c3c(=O)n(C)cc4c3c2CN(c2ccc(F)cc2F)c2ccc(S(C)(=O)=O)cc2-4)cn1" .
A. 7.96

Q. Provide BRD4 (BDI_K57-E168) (Homo sapiens) pKi reading for Cn1cc2c3c(c[nH]c3c1=O)C(C(=O)NC1CCCCC1)N(c1ccc(F)cc1F)c1ccc(CS(C)(=O)=O)cc1-2 (stereo not shown) .
A. 7.22

Q. Provide BRD4 (BDI_K57-E168) (Homo sapiens) pKi reading for "Cn1cc2c3c(c[nH]c3c1=O)CN(c1cccnc1)c1ccc(CS(C)(=O)=O)cc1-2" .
A. 9.37

----------
system: breast cancer cell line MX-1; experiment: MX-1 cell line proliferation assay; type: cell-based; conditions: MX-1 cells, 3-day proliferation assay, Cell Titer Glo; read-out: Cellular proliferation: EC50
Please note: EC50 exactly at 10 nM is not met. Only values below 10 nM get met.

Consider the following illustrative entries.
Cn1cc2c3c(c[nH]c3c1=O)CN(C(=O)Oc1ccc(F)cc1)c1ccc(CS(C)(=O)=O)cc1-2 [Example 94] : met
Cn1cc2c3c(c[nH]c3c1=O)CN(CC1CCOC1)c1ccc(CS(C)(=O)=O)cc1-2 (stereo not shown) [Example 26] : met
CN(NC(=O)CCC1c2c[nH]c3c(=O)n(C)cc(c23)-c2cc(CS(C)(=O)=O)ccc2N1c1ccc(F)cc1F)c1ccccc1 (stereo not shown) [Example 122] : not met
Cn1cc2c3c(c[nH]c3c1=O)C(c1cccc3ccccc13)N(c1ccc(F)cc1F)c1ccc(CS(C)(=O)=O)cc1-2 (stereo not shown) [Example 217] : not met
Cn1cc2c3c(c[nH]c3c1=O)CN(c1ccc(F)cc1F)c1c(C(N)=O)cc(CS(C)(=O)=O)cc1-2 [Example 240] : not met

Q. Hi there! Is EC50 for COC(=O)NC1CCC(N2Cc3c[nH]c4c(=O)n(C)cc(c34)-c3cc(CS(C)(=O)=O)ccc32)CC1 (stereo not shown) [Example 225] below 10 nM, do you know?
A. not met

Q. Hi there! Is EC50 for CNC(=O)CCC1c2c[nH]c3c(=O)n(C)cc(c23)-c2cc(CS(C)(=O)=O)ccc2N1c1ccc(F)cc1F (stereo not shown) [Example 118] below 10 nM, do you know?
A. not met

----------
target: BRD4 (BDII_E352-M457) (Homo sapiens); construct: protocol; made in house; test: TR-FRET bromodomain binding assay, second bromodomain of BRD4; conditions: TR-FRET assay protocol G (compound 0.92 μM-15 pM); 30 nM probe
pKi: −log10 of the molar value.
Classify as follows. Reported pKi greater than or equal to 8: Met. Reported pKi below: Not met.

Consider the following illustrative entries.
Cn1cc2c3c(c[nH]c3c1=O)CN(C1CCC(NC(=O)OC(C)(C)C)CC1)c1ccc(CS(C)(=O)=O)cc1-2 (mixture of isomers) [Example 196] : Met
Cn1cc2c3c(c[nH]c3c1=O)CN(C(=O)Cc1ccccc1)c1ccc(CS(C)(=O)=O)cc1-2 [Example 108] : Met
Cc1cnc2c(c1)-c1cn(C)c(=O)c3[nH]cc(c13)C(c1ccccc1)N2c1ccc(F)cc1 (stereo not drawn) [Example 33] : Not met
Cn1cc2c3c(c[nH]c3c1=O)CN(C(=O)NCC1CCCCC1)c1ccc(CS(C)(=O)=O)cc1-2 [Example 67] : Not met

Q. Does Cn1cc2c3c(c[nH]c3c1=O)CN(c1ccc(F)cc1F)c1c(C(N)=O)cc(CS(C)(=O)=O)cc1-2 [Example 240] have a reported pKi of at least 8?
A. Met

Q. Does Cn1cc2c3c(c[nH]c3c1=O)CN(c1ccc(Cl)cn1)c1ccc(CS(C)(=O)=O)cc1-2 [Example 245] have a reported pKi of at least 8?
A. Met

Q. Does Cn1cc2c3c(c[nH]c3c1=O)C(c1ccccc1)N(c1ccc(F)cc1F)c1ccc(CS(C)(=O)=O)cc1-2 (stereo not drawn) [Example 214] have a reported pKi of at least 8?
A. Met

Q. Does Cn1cc2c3c(c[nH]c3c1=O)CN(CC1CCOC1)c1ccc(CS(C)(=O)=O)cc1-2 (stereo not drawn) [Example 26] have a reported pKi of at least 8?
A. Met

Q. Does COc1cc(OC)cc(C2c3c[nH]c4c(=O)n(C)cc(c34)-c3cc(CS(C)(=O)=O)ccc3N2c2ccc(F)cc2F)c1 (stereo not drawn) [Example 222] have a reported pKi of at least 8?
A. Not met

Q. Does Cn1cc2c3c(c[nH]c3c1=O)CN(C(=O)Oc1ccc(F)cc1)c1ccc(CS(C)(=O)=O)cc1-2 [Example 94] have a reported pKi of at least 8?
A. Met

Q. Does CC1OCCC1N1Cc2c[nH]c3c(=O)n(C)cc(c23)-c2cc(CS(C)(=O)=O)ccc21 (stereo not drawn) [Example 180] have a reported pKi of at least 8?
A. Met

Q. Does Cn1cc2c3c(c[nH]c3c1=O)CN(c1ccc(F)cc1F)c1ccc(CS(C)(=O)=O)cc1-2 [Example 12] have a reported pKi of at least 8?
A. Met

----------
system: breast cancer cell line MX-1; test: MX-1 cell line proliferation assay; format: cell-based; conditions: MX-1 cells, 3-day proliferation assay, Cell Titer Glo; read-out: Cellular proliferation: EC50
pEC50: −log10 of the molar value.
Assign a class from recorded pEC50; defined classes: range A (below 7), range B (7 to below 8), range C (8 or more)

Q. Form: Item = COC1CCN(C(=O)C2c3c[nH]c4c(=O)n(C)cc(c34)-c3cc(CS(C)(=O)=O)ccc3N2c2ccc(F)cc2)CC1 (stereo not drawn) [Example 40] ; Class = ?
A. range A

Q. Form: Item = CCNC(=O)c1[nH]c2c(=O)n(C)cc3c2c1CN(c1ccc(Cl)cc1)c1ccc(CS(C)(=O)=O)cc1-3 [Example 59] ; Class = ?
A. range C

Q. Form: Item = Cn1cc2c3c(c[nH]c3c1=O)C(CCC(O)CO)N(c1ccc(F)cc1F)c1ccc(CS(C)(=O)=O)cc1-2 (stereo not drawn) [Example 140] ; Class = ?
A. range A

Q. Form: Item = CNC(=O)c1cc(CS(C)(=O)=O)cc2c1N(c1ccc(F)cc1F)Cc1c[nH]c3c(=O)n(C)cc-2c13 [Example 241] ; Class = ?
A. range B

Q. Form: Item = CCS(=O)(=O)c1ccc2c(c1)-c1cn(C)c(=O)c3[nH]cc(c13)CN2CC1CC1 [Example 2] ; Class = ?
A. range B

Q. Form: Item = Cn1cc2c3c(c[nH]c3c1=O)CN(CCCc1ccccc1)c1c(F)cc(F)cc1-2 [Example 51] ; Class = ?
A. range A

Q. Form: Item = CCOCCCC1c2c[nH]c3c(=O)n(C)cc(c23)-c2cc(CS(C)(=O)=O)ccc2N1c1ccc(F)cc1F (stereo not drawn) [Example 148] ; Class = ?
A. range B

Q. Form: Item = Cn1cc2c3c(c[nH]c3c1=O)C(CN)N(c1ccc(F)cc1F)c1ccc(CS(C)(=O)=O)cc1-2 (stereo not drawn) [Example 129] ; Class = ?
A. range A
